- Measurement target: T1, soluble EGFR (human epithelial cell growth factor receptor 1, Her1) (human, UniProt P00533 25-645, limits assumed)
- T1 construct: The metal chelate purification implies a His tag, but none is described; also called target antigen
- Test: ITC, 50 uM Fv titrated into 5 uM soluble EGFR
Parameter: TΔS (kcal/mol)

INSERT INTO assay_data (binder, unit_text, numeric_readout) VALUES
  ('h528Fv 5.11.T (other) VH: QVQLVQSGAEVKKPGASVKVSCKASGYTFTSYWMHWVRQAPGQGLEWMGNIWPGTGGTNYAEKFQQRVTMTRDTSISTAYMELSRLRSDDTAVYYCTRSGGPYFFDYWGQGTLVTVSS VL: DIVMTQSPLSLPVTPGEPASISCRSSQNIVHNNGITYLEWYLQKPGQSPQLLIYKVSDRFSGVPDRFSGSGSGTDFTLKISRVEAEDVGVYYCFQGSHIPPTFGQGTKVEIKR', 'kcal/mol', -8.08),
  ('h528Fv 5.73.0 (other) VH: QVQLVQSGAEVKKPGASVKVSCKASGYTFTSYWMHWVRQAPGQGLEWMGNIWPGNGGTNYAEQFKQRVTMTRDTSISTAYMELSRLRSDDTAVYYCARSGGPYFFDYWGQGTLVTVSS VL: DIVMTQSPLSLPVTPGEPASISCRSSQNIVHNNGITYLEWYLQKPGQSPQLLIYKVSDRFSGVPDRFSGSGSGTDFTLKISRVEAEDVGVYYCFQGSHIPPTFGQGTKVEIKR', 'kcal/mol', -5.14),
  ('h528Fv WT (other, Fv fragment: VH and VL co-expressed in E. coli BL21; Purified by metal chelate chromatography; the tag is not described; also called wild type humanized Fv) VH: QVQLVQSGAEVKKPGASVKVSCKASGYTFTSYWMHWVRQAPGQGLEWMGNIYPGSGGTNYAEKFKNRVTMTRDTSISTAYMELSRLRSDDTAVYYCARSGGPYFFDYWGQGTLVTVSS VL: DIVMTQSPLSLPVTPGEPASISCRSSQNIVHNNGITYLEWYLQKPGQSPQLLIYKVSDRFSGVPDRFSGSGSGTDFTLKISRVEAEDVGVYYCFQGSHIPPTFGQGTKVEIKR', 'kcal/mol', -4.66);

meta.source: patent US20130131320A1
